Sourced from patent US12030877B2

target: mPGES-1 (Homo sapiens); experiment: mPGES-1 enzyme activity assay (PGE2 enzyme immunoassay), human enzyme; assay type: biochemical; design: made in house; host or cells: FreeStyle 293-F cells, crude microsomal preparation; details: recombinant microsomal enzyme; means ± SD, triplicate; read-out: IC50 against mPGES-1, Human enzyme
Sequence (O14684 whole entry): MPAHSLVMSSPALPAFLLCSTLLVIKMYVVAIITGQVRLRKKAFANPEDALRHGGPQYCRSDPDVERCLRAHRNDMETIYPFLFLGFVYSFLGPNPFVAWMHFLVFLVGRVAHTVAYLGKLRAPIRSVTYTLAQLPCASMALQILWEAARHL
parameter: log10 of IC50 (log10 of the value in nM)

1. CCCCCCOc1c(Br)cc(C=C(C#N)C#N)cc1OC: 2.26
2. CCCCCCCOc1ccc(/C=C(\C#N)C(N)=O)cc1OC: 3.34
3. CCCCCOc1ccc(/C=C(\C#N)C(=O)OCC)cc1: 3.79
4. O=C(O)CN1C(=O)S/C(=C2\C(=O)N(Cc3ccccc3)c3ccccc32)C1=O: 2.91
5. O=C(O)CN1C(=O)S/C(=C2\C(=O)N(CC3CCCCC3)c3ccc(-c4ccc(C#CC5CCCCC5)cc4)cc32)C1=O: 1.40
6. CCCCCCOc1ccc(-c2nn(-c3ccc(Cl)cc3)cc2/C=C(/C#N)C(=O)O)cc1: 1.92
7. CCCCOc1ccc(-c2nn(-c3ccccc3)cc2/C=C(/C#N)C(=O)O)cc1: 2.47
8. CCOc1ccc(-c2nn(-c3ccc(Cl)cc3)cc2/C=C(/C#N)C(=O)O)cc1: 2.45
9. CCCCCOc1ccc(/C=C(\C#N)C(=O)OCC)cc1OC: 3.62
